Tested on: A. baumannii strain ATCC17978
procedureDetails: 50% growth inhibitory concentration (IC50) determination, Iso-Sensitest broth
Assay type: cell-based
particulars: Acinetobacter baumannii, ATCC17978, 16 h, read-out: IC50 ATCC17978
recordedEndpoint: IC50

entrysmiles=CN1C(=O)[C@H](CCCCN)NC(=O)[C@H](CCCN)NCc2cccnc2Sc2c(Cl)ccc(-c3ccc(C(=O)O)cc3)c2CNC(=O)[C@@H]1Cc1c[nH]c2ccccc12 recordedendpoint=IC50 measured="< 1 µM"

Every entry's value here was drawn from patent US10030047B2.
